Tested on: L. infantum promastigotes
measurementProtocol: Antileishmanial activity on L. infantum promastigotes (MTT)
Assay type: cell-based, Leishmania infantum
cond: percent of amphotericin B potency, calculated for each experiment
measuredProperty: IC50 amph. B ×100/IC50 compd., L. infantum

INSERT INTO measurements (chemicalstructure, experimentaltarget, measurednumber) VALUES
  ('CCCCCCCCCCCCCCCc1n(C)c2ccc([N+](=O)[O-])cc2[n+]1C.[I-]', 'L. infantum promastigotes', 12.3),
  ('FC(F)(F)c1ccc2c(c1)nc(-c1ccc(Cl)cc1)n2C[C@@H]1CCCN2CCCC[C@H]12', 'L. infantum promastigotes', 0.95),
  ('CCN(CC)CCCn1c(-c2ccc(OC)cc2)nc2cc(C(F)(F)F)ccc21', 'L. infantum promastigotes', 0.64);

A = CCCCCCCCCCCCCCCc1n(C)c2ccc(C(F)(F)F)cc2[n+]1C.[I-]
B = CCCCCCCCCCCCCCCc1n(C)c2ccccc2[n+]1C.[I-]
Which numeric IC50 amph. B ×100/IC50 compd., L. infantum is bigger, that of A or that of B ? Please identify the chosen entry by its label.
B

I = CCCCCCCCCCCCCCCc1nc2ccccc2[nH]1
II = CCCCCCCCCCCCCCCc1n(C)c2ccccc2[n+]1Cc1ccccc1.[Cl-]
Would you let me know which has the greater IC50 amph. B ×100/IC50 compd., L. infantum value, I or II ? # respond with the chosen item's label
II

---

measuredProperty: melting point

Guide cases for melting point, answers given:
INSERT INTO measurements (compound, measuredproperty, result) VALUES
  ('CCCCCCCCCCCc1n(C)c2ccccc2[n+]1CCC.[I-] [Compound 4]', 'melting point', '140.2 to 145 °C'),
  ('CCCCCCCCCCCCCCCc1nc2ccccc2n1Cc1ccccc1 [Compound 13, 1-Benzyl-2-pentadecyl-1H-benzimidazole]', 'melting point', '60.7 to 61.8 °C'),
  ('Cn1c(Cc2ccc(Cl)cc2)[n+](C)c2cc(C(F)(F)F)ccc21.[I-] [Compound 22]', 'melting point', '60 °C'),
  ('CCCCCCCCCCCc1n(Cc2ccccc2)c2ccccc2[n+]1Cc1ccccc1.[Cl-] [Compound 5]', 'melting point', '223.3 to 225.3 °C'),
  ('CCCCCCCCCCCCCCCc1n(C)c2ccccc2[n+]1CCC.[I-] [Compound 12]', 'melting point', '144.7 to 147.4 °C');

Entry CCCCCCCCCCCCCCCc1n(C)c2cc(Cl)c(Cl)cc2[n+]1C.[I-] [Compound 11] has what melting point?
200 to 203 °C

Which melting point is listed for CCCC(CCC)c1n(C)c2ccccc2[n+]1C.[I-] [Compound 20] ?
192.2 to 192.9 °C

Could you share which melting point value was measured for CCCCCCCCCCCc1n(C)c2ccccc2[n+]1C.[I-] [Compound 3] ?
157.3 to 161.3 °C

Form field: reported melting point of CCCCCCCCCCCCCCCc1n(C)c2ccc([N+](=O)[O-])cc2[n+]1C.[I-] [Compound 10]
154 to 156 °C

# lookup: melting point of C[n+]1c(-c2ccc(Cl)cc2)n(C[C@@H]2CCC[N+]3(C)CCCC[C@H]23)c2ccc(C(F)(F)F)cc21 (stereo partly shown) [Compound 39]
165 to 169 °C

---

measuredProperty: melting point

Below, each entry is followed by its recorded melting point result.
INSERT INTO measurements (chemicalstructure, result) VALUES
  ('CCCCCCCCCCCCCCCc1nc2ccccc2[nH]1', '88.8 to 94.2 °C'),
  ('CCCCCCCCCCCCCCCc1nc2ccccc2n1C', '64.2 to 65.6 °C'),
  ('CCCCCCCCCCCCCCCc1n(C)c2ccccc2[n+]1Cc1ccccc1.[Cl-]', '215.7 to 219.3 °C');

Field: next compound
What value of measured melting point is listed for `Cn1c(Cc2ccc(Cl)cc2)[n+](C)c2ccccc21.[I-]` ?
94 to 98 °C

---

System: L. tropica promastigotes
measurementProtocol: Antileishmanial activity on L. tropica promastigotes (MTT)
Format: cell-based, Leishmania tropica
Recorded Ratio IC50 miltef./IC50 compd., L. tropica, one value per entry.
Please give the numeric answer without any surrounding text.

INSERT INTO results (compound, measurednumber) VALUES
  ('COc1ccc(Cc2nc3cc([N+](=O)[O-])ccc3n2C[C@@H]2CCCN3CCCC[C@H]23)cc1 [Compound 34]', 12.6),
  ('O=[N+]([O-])c1ccc2c(c1)nc(Cc1ccccc1)n2C[C@@H]1CCCN2CCCC[C@H]12 [Compound 32]', 6.0),
  ('O=[N+]([O-])c1ccc2c(c1)nc(Cc1ccc(Cl)cc1)n2C[C@@H]1CCCN2CCCC[C@H]12 [Compound 33]', 11.0);

Can you share its Ratio IC50 miltef./IC50 compd., L. tropica? I mean this compound: COc1ccc(Cc2nc3cc(C(C)=O)ccc3n2C[C@@H]2CCCN3CCCC[C@H]23)cc1 [Compound 31]
1.8

---

Tested on: human microvascular endothelial cell line (HMEC-1)
measurementProtocol: Cytotoxicity on HMEC-1 cells (MTT)
Type: cell-based
cond: cytotoxicity, HMEC-1 cells, MTT
measuredProperty: IC50 (µM)
Just the number in µM, nothing appended.

Item: `CCCCCCCCCCCCCCCc1n(C[c-]2cccc2)c2ccccc2[n+]1C.[Fe+2].[I-].c1cc[cH-]c1` Test system: human microvascular endothelial cell line (HMEC-1) Read-out: IC50 Value: ?
1.26

---

measurementProtocol: Cytotoxicity on Vero-76 cells (crystal violet)
cond: monkey, Vero-76 cells
measuredProperty: IC50 (µM)
Value expressed in µM; do not type the unit.

INSERT INTO assay_data (chemicalstructure, measuredproperty, measurednumber) VALUES
  ('COc1ccc(-c2nc3cc(C(F)(F)F)ccc3n2C[C@@H]2CCCN3CCCC[C@H]23)cc1', 'IC50', 75);

For the molecule `CCCCCCCCCCCCCCCc1n(C)c2ccccc2[n+]1C.[I-]` , what IC50 is on record?
5.8

Form field: reported IC50 of `Oc1ccc(-c2nc3cc(C(F)(F)F)ccc3n2C[C@@H]2CCCN3CCCC[C@H]23)cc1`
78

Requested field: IC50. Item: `CCCCCCCCCCCc1n(C)c2ccccc2[n+]1CCC.[I-]`
2.6

What does the data say about its IC50? Entry: `FC(F)(F)c1ccc2c(c1)nc(-c1ccccc1)n2C[C@@H]1CCCN2CCCC[C@H]12`
90

Value lookup for IC50; key = `FC(F)(F)c1ccc2c(c1)nc(-c1ccc(Cl)cc1)n2C[C@@H]1CCCN2CCCC[C@H]12`
24

---

measurementProtocol: in vitro
cond: monkey
# pIC50 per entry
Answer as the number alone; pIC50 is minus log10 of concentration in mol/L.

Example results:
INSERT INTO assay_data (chemicalstructure, measurednumber) VALUES
  ('O=[N+]([O-])c1ccc2c(c1)nc(Cc1ccccc1)n2C[C@@H]1CCCN2CCCC[C@H]12', 4.30),
  ('COc1ccc(Cc2nc3cc([N+](=O)[O-])ccc3n2C[C@@H]2CCCN3CCCC[C@H]23)cc1', 4.31);

We next turn to a different compound, shown below.
Tell me the measured pIC50 of `O=[N+]([O-])c1ccc2c(c1)nc(Cc1ccc(Cl)cc1)n2C[C@@H]1CCCN2CCCC[C@H]12` , please.
4.17

---

measuredProperty: melting point

// solved cases for melting point follow
INSERT INTO assay_data (chemicalstructure, measuredproperty, result) VALUES
  ('CCCCCCCCCCCc1nc2ccccc2[nH]1', 'melting point', '108.1 to 109.3 °C'),
  ('CCCCCCCCCCCCCCCc1n(Cc2ccccc2)c2ccccc2[n+]1Cc1ccccc1.[Cl-]', 'melting point', '214.9 to 216.3 °C'),
  ('CCCCCCCCCCCCCCCc1n(C)c2ccc(C(F)(F)F)cc2[n+]1C.[I-]', 'melting point', '116 to 118 °C'),
  ('CCCCCCCCCCCc1nc2ccccc2n1C', 'melting point', '40.8 to 43.4 °C'),
  ('CCCC(CCC)c1nc2ccccc2[nH]1', 'melting point', '224.7 to 225.8 °C');

// switching to the query compound
Look at this compound and give its reported melting point. `CCCCCCCCCCCCCCCc1n(C)c2ccccc2[n+]1C.[I-]`
169 to 172 °C

---

measurementProtocol: Cytotoxicity on Vero-76 cells (crystal violet)
cond: monkey, Vero-76 cells
Parameter: IC50. Scope: all listed entries.

INSERT INTO results (chemicalstructure, result) VALUES
  ('COc1ccc(-c2nc3cc(C(F)(F)F)ccc3n2CCN(C)C)cc1', '> 100 µM'),
  ('CC(=O)c1ccc2c(c1)nc(Cc1ccc(Cl)cc1)n2C[C@@H]1CCCN2CCCC[C@H]12', '> 100 µM');

Below: the item to evaluate.
I am curious: what IC50 value has been reported for `CCN(CC)CCCn1c(-c2ccc(OC)cc2)nc2cc(C(F)(F)F)ccc21` ?
> 100 µM
